Assign CHI IAM to each entry below.
# ASSAY_COMMENT: Phospholipid binding at pH 7.4 on IAM PC.DD2 HPLC column
# Format: physicochemical
# Set-up: key: approximates acetonitrile concentration (%) in mobile phase at elution
# REPORTED_CONDITIONS: pH 7.4
Answers are plain numbers.

Example results:
O=C1NC(=O)C(c2ccccc2)(c2ccccc2)N1 | 29.66
CC[C@H]1OC(=O)[C@H](C)[C@@H](O[C@H]2C[C@@](C)(OC)[C@@H](O)[C@H](C)O2)[C@H](C)[C@@H](O[C@@H]2O[C@H](C)C[C@H](N(C)C)[C@H]2O)[C@](C)(OC)C[C@@H](C)C(=O)[C@H](C)[C@@H](O)[C@]1(C)O | 49.68

# batch: return CHI IAM for each of the 4 compounds below
1. Nc1nnc(-c2cccc(Cl)c2Cl)c(N)n1
2. CN1CCN(C2=Nc3cc(Cl)ccc3Nc3ccccc32)CC1
3. CCCCN1CCCCC1C(=O)Nc1c(C)cccc1C (stereo not drawn)
4. CC(C)c1nc(CN(C)C(=O)N[C@H](C(=O)N[C@@H](Cc2ccccc2)C[C@H](O)[C@H](Cc2ccccc2)NC(=O)OCc2cncs2)C(C)C)cs1

1. 23.25
2. 52.42
3. 41.66
4. 38.64
